System: 171881-019-R-J1-PDC tumor spheroids, viability;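 also: spheroids exposed to compounds for 7 days; 100% = DMSO vehicle control viability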
Experiment: Anticancer human tumor 171881-019-R-J1-PDC patient-derived invasive breast carcinoma cell line growth inhibition [GQUAD]; active = viability on the fitted dose curve at most 10% of control; inactive = the rest
Conditions: second compound 0.0316 µM; first compound 3.16 µM; spheroids with HUVEC and MSC
Outcome codes: class 1 = active, class 0 = inactive

- MOLECULE: "CC1COCCN1c1cc(C2(O)CC3CCC(C2)O3)c2cnn(-c3ccn[nH]3)c2n1 (stereo not given) + CN(C)c1ccc(Nc2c3ccc(NC(=O)CCN4CCCC4)cc3nc3cc(NC(=O)CCN4CCCC4)ccc23)cc1"
  ANSWER_LABEL: "class 1"
- MOLECULE: "COc1cccc2c1C(=O)c1c(O)c3c(c(O)c1C2=O)CC(O)(C(=O)CO)CC3OC1CC(N)C(O)C(C)O1 (stereo not given) + Cc1[nH]c2ccc(F)cc2c1-c1nc2c3cccnc3c3ncccc3c2[nH]1"
  ANSWER_LABEL: "class 1"
- MOLECULE: "COc1ccc([C@@H](O)c2cc(-c3ncnc4cc(N5CCOCC5)ccc34)c(F)cc2Cl)nn1 + CN(C)c1ccc(Nc2c3ccc(NC(=O)CCN4CCCC4)cc3nc3cc(NC(=O)CCN4CCCC4)ccc23)cc1"
  ANSWER_LABEL: "class 0"
- MOLECULE: "COc1cccc2c1C(=O)c1c(O)c3c(c(O)c1C2=O)CC(O)(C(=O)CO)CC3OC1CC(N)C(O)C(C)O1 (stereo not given) + Cc1cnc(CNC(=O)c2c(=O)c3ccc(N4CCCN(C)CC4)nc3n3c2sc2ccccc23)cn1"
  ANSWER_LABEL: "class 1"
- MOLECULE: "CC(C)(O)C1CCC(Nc2ccc3ncc(-c4cccc(C(F)(F)F)c4)n3n2)CC1 (stereo not given) + CN(C)c1ccc(Nc2c3ccc(NC(=O)CCN4CCCC4)cc3nc3cc(NC(=O)CCN4CCCC4)ccc23)cc1"
  ANSWER_LABEL: "class 0"
- MOLECULE: "Cc1cccc(N(C)C(=O)C2C(O)CCN2c2nc(C)cc(C(F)(F)F)c2C#N)c1 (stereo not given) + Cc1cnc(CNC(=O)c2c(=O)c3ccc(N4CCCN(C)CC4)nc3n3c2sc2ccccc23)cn1"
  ANSWER_LABEL: "class 0"
- MOLECULE: "CC1COCCN1c1cc(C2(S(C)(=N)=O)CC2)nc(-c2ccnc3[nH]ccc23)n1 (stereo not given) + Cc1[nH]c2ccc(F)cc2c1-c1nc2c3cccnc3c3ncccc3c2[nH]1"
  ANSWER_LABEL: "class 0"
- MOLECULE: "C=CC(=O)N1CCN(c2nc(=O)n(-c3c(C)ccnc3C(C)C)c3nc(-c4c(O)cccc4F)c(F)cc23)C(C)C1 (stereo not given) + CN(C)c1ccc(Nc2c3ccc(NC(=O)CCN4CCCC4)cc3nc3cc(NC(=O)CCN4CCCC4)ccc23)cc1"
  ANSWER_LABEL: "class 0"
- MOLECULE: "CCCS(=O)(=O)Nc1ccc(F)c(C(=O)c2c[nH]c3ncc(-c4ccc(Cl)cc4)cc23)c1F + Cc1cnc(CNC(=O)c2c(=O)c3ccc(N4CCCN(C)CC4)nc3n3c2sc2ccccc23)cn1"
  ANSWER_LABEL: "class 0"
- MOLECULE: "CC(=O)O[C@H]1C(=O)[C@@]2(C)[C@H]([C@H](OC(=O)c3ccccc3)[C@]3(O)C[C@H](OC(=O)[C@H](O)[C@@H](NC(=O)c4ccccc4)c4ccccc4)C(C)=C1C3(C)C)[C@]1(OC(C)=O)CO[C@@H]1C[C@@H]2O + Cc1cnc(CNC(=O)c2c(=O)c3ccc(N4CCCN(C)CC4)nc3n3c2sc2ccccc23)cn1"
  ANSWER_LABEL: "class 0"

The measured values listed here are drawn from PubChem BioAssay AID2060498.
